System: MDA-MB-231
Assay: Cytotoxicity against human MDA-MB-231 cells assessed as cell growth at 10 uM after 48 hrs by SRB assay relative to control
Assay type: functional
Conditions: MDA-MB-231, 48 h, read-out: Activity

{"columns": ["entry smiles", "experimental target", "growth at 10 µM"],
 "data": [
  ["O=C1c2ccccc2C(=O)c2c1ccc1nsnc21", "MDA-MB-231", "-17.3%"],
  ["O=C1c2ccccc2C(=O)c2c1cc(Sc1ccc(Cl)cc1)c1nsnc21", "MDA-MB-231", "89%"],
  ["Cc1ccc(Sc2cc3c(c4nsnc24)C(=O)c2ccccc2C3=O)c(C)c1", "MDA-MB-231", "92.3%"],
  ["CC(C)Sc1cc2c(c3nsnc13)C(=O)c1ccccc1C2=O", "MDA-MB-231", "-35.9%"],
  ["COc1ccc(Sc2cc3c(c4nsnc24)C(=O)c2ccccc2C3=O)cc1", "MDA-MB-231", "87.6%"],
  ["O=C1c2ccccc2C(=O)c2c1cc(Sc1ccccc1)c1nsnc21", "MDA-MB-231", "66.7%"],
  ["Cc1cccc(C)c1Sc1cc2c(c3nsnc13)C(=O)c1ccccc1C2=O", "MDA-MB-231", "30.6%"],
  ["O=C1c2ccccc2C(=O)c2c1cc(Sc1ccccc1Br)c1nsnc21", "MDA-MB-231", "16.9%"]
]}
